# System: Rabbit Psoas myofibrils (skeletal myosin ATPase)
# Procedure summary: Myofibril ATPase assay, rabbit psoas (skeletal) myofibrils
# Assay type: biochemical
# Experimental parameters: Y75 value (no ‡ mark); rabbit psoas myofibrils
Measurement type: Skeletal EC25 (nM)

> print(dat)
                           molecular.string  measurement.type  value.reported
1  Cc1c(CC(=O)N[C@@H](C)c2ccc(C#N)cc2F)c(=O)[nH]c2ccc(F)c(F)c12     Skeletal EC25              10
2  Cc1ccncc1[C@H](C)NC(=O)Cc1c(C)c2c(C)c(F)ccc2[nH]c1=O     Skeletal EC25          100000
3  C[C@H](NC(=O)Cc1cc2c(F)cccc2[nH]c1=O)c1ccc(F)cc1F     Skeletal EC25              20
4  C[C@H](NC(=O)C(F)(F)c1cc2cc(F)ccc2[nH]c1=O)c1ccc(F)cc1F     Skeletal EC25             110
